Listed next: entries and their corresponding apparent Kd (screen).
Target: T1, TNFR1 (Homo sapiens, UniProt P19438)
T1 chain: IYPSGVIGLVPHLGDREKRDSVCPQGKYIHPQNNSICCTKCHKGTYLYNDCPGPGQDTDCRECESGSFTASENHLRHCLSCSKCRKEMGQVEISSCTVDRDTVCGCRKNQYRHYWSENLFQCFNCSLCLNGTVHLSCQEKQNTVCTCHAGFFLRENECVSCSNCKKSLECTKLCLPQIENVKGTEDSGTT
Assay: yeast display SC50
assay.metric: apparent Kd (screen) (nM)

1. Y50Q (designed binder) SMEEEVEKAAKEYEKKKKEAIEKHLEKLKAKDKEAAERFLKELEEAAKEQAKDEAKTMSEEEAKRRAKKYKEKVLLSELSEEEQKEIKEAEEKLVRTILKYVEEAAK    4.83
2. E7H (designed binder) SMEEEVHKAAKEYEKKKKEAIEKHLEKLKAKDKEAAERFLKELEEAAKEYAKDEAKTMSEEEAKRRAKKYKEKVLLSELSEEEQKEIKEAEEKLVRTILKYVEEAAK    4.39
3. E3C (designed binder) SMCEEVEKAAKEYEKKKKEAIEKHLEKLKAKDKEAAERFLKELEEAAKEYAKDEAKTMSEEEAKRRAKKYKEKVLLSELSEEEQKEIKEAEEKLVRTILKYVEEAAK    7.07
4. L94M (designed binder) SMEEEVEKAAKEYEKKKKEAIEKHLEKLKAKDKEAAERFLKELEEAAKEYAKDEAKTMSEEEAKRRAKKYKEKVLLSELSEEEQKEIKEAEEKMVRTILKYVEEAAK    1.86
